Source: ChEMBL document CHEMBL3351742

assay: Toxicity against mouse HT22 cells assessed as cell viability at 5 uM after 24 hrs by MTT assay; assay type: cell-based, HT-22; conditions: read-out: Activity
Listed here are compounds together with their documented viability at 24 h, 5 µM.
Note: unit % is implicit; provide only the numeric part.

These recorded examples may help you get a feel for the data.
Q: State the recorded viability at 24 h, 5 µM for this entry: `O=C(Nc1cc2ncncc2cc1OCc1ccccc1F)Nc1cccc2ccccc12`
Ans: 83

Q: Entry under review: `O=C(Nc1cccc(F)c1)Nc1cc2ncncc2cc1OCc1cccc(F)c1` . Reported viability at 24 h, 5 µM?
Ans: 104

Q: Which viability at 24 h, 5 µM is listed for `O=C(Nc1cccc(F)c1)Nc1cc2ncncc2cc1OCc1ccccc1` ?
Ans: 100

Q: I would be grateful if you could share the reported viability at 24 h, 5 µM for `O=C(Nc1ccccc1F)Nc1cc2ncncc2cc1OCc1ccc(Cl)cc1` .
Ans: 102

New cases:
Q: Which value of viability at 24 h, 5 µM has been reported for `O=C(Nc1cccc(F)c1)Nc1cc2ncncc2cc1OCc1ccc(Cl)cc1` in the records?
Ans: 100

Q: Return reported viability at 24 h, 5 µM; argument: `O=C(Nc1ccccc1F)Nc1cc2ncncc2cc1OCc1ccccc1Cl`
Ans: 101

Q: Quick check: viability at 24 h, 5 µM of `Cc1ccc(NC(=O)Nc2cc3ncncc3cc2OCc2ccccc2F)cc1` ?
Ans: 131
